Quick list: self-cleavage per entry.
B1: CPEB3 Ribozyme (parent)
chain: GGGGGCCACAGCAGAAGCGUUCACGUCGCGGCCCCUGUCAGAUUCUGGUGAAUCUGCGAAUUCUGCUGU

# Variants of: B1
# assay-text: self-cleavage, relative activity (ratio to wild type); higher = more cleavage; co-transcriptional
measured-parameter: self-cleavage

primary-sequence | reported
GGGGGCCACAGCAGAAGCGUUCACGUCGAGGCCCCUGUCAGAUUCUGGUGAAUCUGCGAAUUCUGAUGU [C29A C66A] | 0.334
GAGGGCCACAGCAGAACCGUUCACGUCGCGGCCCCUGUCAGAUUCUGGUGAAUCUGCGAAUUCUGCUGU [G2A G17C] | 0.0329
GGGGGCGACAGGAGAAGCGUUCACGUCGCGGCCCCUGUCAGAUUCUGGUGAAUCUGCGAAUUCUGCUGU [C7G C12G] | 0.223
GGGGGCCACUGCAGAAGCGUUCACGUCGCGGCCCCUGUCAGAGUCUGGUGAAUCUGCGAAUUCUGCUGU [A10U U43G] | 0.831
GGGGGCCACAGCAGAUGCGUUCACGUCGCGGCCCCUGUCAGAUGCUGGUGAAUCUGCGAAUUCUGCUGU [A16U U44G] | 0.767
GGGGGCCACAGCAGAAGCGUUCACUUCGCGGCCCCUGUCAGAUUGUGGUGAAUCUGCGAAUUCUGCUGU [G25U C45G] | 0.133
GGGGGCCACAGCAGAAGCGUUCACGUCGCGGCCCCUGUCAGAUUCAGGUGAUUCUGCGAAUUCUGCUGU [U46A A52U] | 0.981
GGGGGCCACAGCAGAAGCGUUCACGUCGCGGCCCCUGUCAGAUUCUGGUGAUUCAGCGAAUUCUGCUGU [A52U U55A] | 0.7
GGGGGCGACAUCAGAAGCGUUCACGUCGCGGCCCCUGUCAGAUUCUGGUGAAUCUGCGAAUUCUGCUGU [C7G G11U] | 0.175
GGGGGCCACAGGAGAAGCGUUCACGUCGCGGCCCCUGUCAGAGUCUGGUGAAUCUGCGAAUUCUGCUGU [C12G U43G] | 0.361
GGGGGCCACAGCAGAAGCGUUCACGUCGCGGCCCCGGUCAGAUUCUGGUGAAUCUGCUAAUUCUGCUGU [U36G G58U] | 0.193
GGGGGACACAGCAGAAGCGUUCACGUCGCGGCCCCGGUCAGAUUCUGGUGAAUCUGCGAAUUCUGCUGU [C6A U36G] | 0.138
GGGGGCCACAGCAGAAGCGUUCACGUCGCGGCCCCUGUCAGAUUCCGGUGAAUCUGUGAAUUCUGCUGU [U46C C57U] | 0.279
GGGUGCCACAGCAGAAGCGUUCACGUCGCGGCCCCUGUCAGAUUCUGGUGAAUCUGAGAAUUCUGCUGU [G4U C57A] | 0.17
GGGGGCCCCAGCAGAAGCGUUCACGGCGCGGCCCCUGUCAGAUUCUGGUGAAUCUGCGAAUUCUGCUGU [A8C U26G] | 0.835
GGGCGCCACAGCAGAAGCGUUCACGUCGCGGCCCCUGUCAGACUCUGGUGAAUCUGCGAAUUCUGCUGU [G4C U43C] | 0.406
GGGGGCCACAGCAGAAGCGUUCACGUCGCGGCCCCUGUCAGCUUCUGGUGAAUCUGCGACUUCUGCUGU [A42C A60C] | 0.503
GGGGGCCACAGCAGAAGCGUUCACGGCGCGGCCCCUGUCAGAUUCUGGUGAAUCCGCGAAUUCUGCUGU [U26G U55C] | 0.787
GGGGGCCACAGCCGAAGCGUUCACGUCGCGGUCCCUGUCAGAUUCUGGUGAAUCUGCGAAUUCUGCUGU [A13C C32U] | 0.89
GGGGGCCACAGCAGAAGCGUUCACGUCGCGGCCCCUGUCAAAUUCUGGUGAAUCUGCGAGUUCUGCUGU [G41A A60G] | 0.464
GGGGGCCACAGCAGAAGCGUUCACGGCGCGGCCCCUGUCAGAUUCUGCUGAAUCUGCGAAUUCUGCUGU [U26G G48C] | 0.959
GGGGUCCACAGAAGAAGCGUUCACGUCGCGGCCCCUGUCAGAUUCUGGUGAAUCUGCGAAUUCUGCUGU [G5U C12A] | 0.112
GGGGGCCACAGCAGAAGCGUUAACGUCGCGGCCCCUGUCAGAUUCUGGUGAAUCUGCGAAUUCUGCUAU [C22A G68A] | 0.247
GGGGGCCACAGCAGAAGCGUUCACGGCGCGGCCCCUGUCAGAUUCUGGUGAAUCUGCGAAUUGUGCUGU [U26G C63G] | 0.427
GGCGGCCACAGCAGAAGCGUUCACGUAGCGGCCCCUGUCAGAUUCUGGUGAAUCUGCGAAUUCUGCUGU [G3C C27A] | 0.0183
GGGGGCAACAGCAGAAGCGUUCACGUCGCGGCCCCUGUCAGAUUCUCGUGAAUCUGCGAAUUCUGCUGU [C7A G47C] | 0.593
GGGGGCCACAGCAGUAGCGUUCACGUCGCGGCCCCUGUCAGAUUCUGGUGAAUCUGCGAUUUCUGCUGU [A15U A60U] | 0.325
GGGGGCCACAGCAAAAGCGUUCUCGUCGCGGCCCCUGUCAGAUUCUGGUGAAUCUGCGAAUUCUGCUGU [G14A A23U] | 0.875
GGGGGCCACAGCAGAAGCGUCCACGUCGCGGCCCCUGUCAGAUUCUGGUGAGUCUGCGAAUUCUGCUGU [U21C A52G] | 0.887
GGGGGCCACACCAGAAGCGUUCACGUCGCGGCCCCUGUCACAUUCUGGUGAAUCUGCGAAUUCUGCUGU [G11C G41C] | 0.257
GGGGGCCACAGCAGAAGCGUUCACGGCGCGCCCCCUGUCAGAUUCUGGUGAAUCUGCGAAUUCUGCUGU [U26G G31C] | 0.131
GUGGGCCACAGCAGAAGCGUCCACGUCGCGGCCCCUGUCAGAUUCUGGUGAAUCUGCGAAUUCUGCUGU [G2U U21C] | 0.0789
GGGGGCCAAAGCAGAAGCGUUCACGUCGCGGCCCCUGUCAGAUGCUGGUGAAUCUGCGAAUUCUGCUGU [C9A U44G] | 1.01
GGGGGCCACAGCAGAACCGUUCACGUUGCGGCCCCUGUCAGAUUCUGGUGAAUCUGCGAAUUCUGCUGU [G17C C27U] | 0.16
GGGGGCCUCAGCAGAAGCGUUCACGUCGCGGCCCCUGUCAGAGUCUGGUGAAUCUGCGAAUUCUGCUGU [A8U U43G] | 0.913
GGGGGCCACAGCAGAAGCGUUCACGUCGCGGCCCCAGUCAGAUUCUGAUGAAUCUGCGAAUUCUGCUGU [U36A G48A] | 0.269
GGGGGCCACAGCAGAAGCGUUCACGUCGCGGCGCCUGUCAGAUUCUGGUGAAUCCGCGAAUUCUGCUGU [C33G U55C] | 0.282
GGGGGCCACAGCAGAAGCGUUCACGUCGGGGCCCCUGUGAGAUUCUGGUGAAUCUGCGAAUUCUGCUGU [C29G C39G] | 0.267
GGGCGCCACAGCAGAAACGUUCACGUCGCGGCCCCUGUCAGAUUCUGGUGAAUCUGCGAAUUCUGCUGU [G4C G17A] | 0.0822
GGGGGCCACAGCAGAAGCGUUCACGUCGUGGCCCCUGUCAGAUACUGGUGAAUCUGCGAAUUCUGCUGU [C29U U44A] | 0.26
GGGGGCCAGAGCAGAAGCGUUCACGUCGCAGCCCCUGUCAGAUUCUGGUGAAUCUGCGAAUUCUGCUGU [C9G G30A] | 0.975
GGGGGCCACAGCAGAAGCGUUCACGUCGCGGCCCCUGUUAGAUGCUGGUGAAUCUGCGAAUUCUGCUGU [C39U U44G] | 0.693
GGGGGCCAUAGCAGAAGCGUUCACGUCGCGGCGCCUGUCAGAUUCUGGUGAAUCUGCGAAUUCUGCUGU [C9U C33G] | 0.974
GGGGGGCACAGAAGAAGCGUUCACGUCGCGGCCCCUGUCAGAUUCUGGUGAAUCUGCGAAUUCUGCUGU [C6G C12A] | 0.102
GGGGGCCACAGCAGAAGCGUUCUCGUCGCGGCCCCUGUCAGAUUCUGGUGAAUCGGCGAAUUCUGCUGU [A23U U55G] | 0.908
GGGGGCCACAGCAUAAGCGUUCACGUCGCGGCCCCUGUCAGAUUCUGGUGAAUCUGCGAAUUCUGCUGG [G14U U69G] | 0.94
